// compounds with reported Kd on CRBN-DDB1 (Homo sapiens, UniProt Q96SW2), multi-publication
endpoint-label: Kd (nM)

O=c1[nH]c2ccc(OCc3ccccc3)cc2[nH]1 : 17
CC(C)c1nc2ccccc2n1-c1ccc2c(c1)[nH]c(=O)n2C : 19
O=C(Nc1ccc2[nH]c(=O)[nH]c2c1)c1ccccc1 : 11
O=c1[nH]c2ccc(-c3ccnc(Cl)c3)cc2[nH]1 : 68
O=c1[nH]c2ccc(-n3c(C(O)c4ccccc4)nc4ccccc43)cc2[nH]1 (stereo not drawn) : 3
CN1C(=O)CCC(NC(=O)[C@H]2CCCc3ccccc32)C1=O (single isomer, unassigned) : 5
NS(=O)(=O)c1ccc(CC(=O)Nc2ccc3[nH]c(=O)[nH]c3c2)cc1 : 46
Nc1ccc2c(c1)CCN2C(=O)Nc1ccc2[nH]c(=O)[nH]c2c1 : 65
Cn1nc(C(=O)N[C@H]2CCC(=O)NC2=O)c2c1CCN(C(=O)OC(C)(C)C)C2 : 4
O=C1CCC(NC(=O)N2CCc3ccccc32)C(=O)N1 (stereo not drawn) : 2
CNC(=O)c1ccc2c(c1)nc(C)n2-c1ccc2[nH]c(=O)[nH]c2c1 : 180
CC(C)(C)OC(=O)N1CCC(S(=O)(=O)Nc2ccc3[nH]c(=O)[nH]c3c2)CC1 : 20
COC(=O)c1ccccc1C(=O)Nc1ccc2[nH]c(=O)[nH]c2c1 : 52
CNC(=O)c1ccc2c(c1)nc(C(F)(F)F)n2-c1ccc2[nH]c(=O)[nH]c2c1 : 7
O=C(Nc1ccc2[nH]c(=O)[nH]c2c1)[C@H]1CCCc2ccccc21 : 16
COC(=O)c1ccc2c(c1)CCN2C(=O)Nc1ccc2[nH]c(=O)[nH]c2c1 : 33
CN(C(=O)c1cnc2[nH]c(=O)[nH]c2c1)c1ccccc1 : 41
CC(=O)N1CCC(C(=O)Nc2ccc3[nH]c(=O)[nH]c3c2)CC1 : 5
O=C(Nc1ccc2c(c1)C(F)(F)C(=O)N2)C1CCCc2ccccc21 (stereo not drawn) : 28
O=C1CCC(NC(=O)c2csc3ccccc23)C(=O)N1 (stereo not drawn) : 8
Cc1sc2c(c1C)C(c1ccc(Cl)cc1)=N[C@@H](CC(=O)NCCCCCC(=O)N1CC[C@H](C(=O)N[C@@H]3CCC(=O)NC3=O)c3ccccc31)c1nnc(C)n1-2 : 37
CNC(=O)c1ccc2c(c1)nc(C(C)C)n2-c1cnc2[nH]c(=O)[nH]c2c1 : 4
CNC(=O)c1ccc2c(c1)nc(-c1ccncc1)n2-c1ccc2[nH]c(=O)[nH]c2c1 : 8
CN1CCC(C(=O)N[C@@H]2CCC(=O)NC2=O)c2ccccc21 (stereo partly drawn) : 68
CC(C)c1nc2ccccc2n1-c1ccc2[nH]c(=O)n(C)c2c1 : 24
O=c1[nH]c2ccc(NS(=O)(=O)c3coc4ccccc34)cc2[nH]1 : 22
O=C(c1ccc2[nH]c(=O)oc2c1)N1Cc2cccc([N+](=O)[O-])c2C1 : 14
Nc1ccc(CC(=O)Nc2ccc3[nH]c(=O)[nH]c3c2)cc1 : 1
CC(=O)Nc1ccc(NCc2ccc3[nH]c(=O)[nH]c3c2)cc1 : 18
Cn1c(=O)n(C)c2cc(Nc3ccccc3N)ccc21 : 11
O=C1CCC(NC(=O)C2CCc3ccccc32)C(=O)N1 (racemic) : 655
O=C(Nc1ccccc1)Nc1ccc2[nH]c(=O)[nH]c2c1 : 17
O=C(c1ccc2[nH]c(=O)oc2c1)N1CCc2ccccc21 : 4
Cn1c(=O)n(C)c2cc(NC(=O)c3ccco3)ccc21 : 111
